# TEST SYSTEM: binding partner of C5A (XPA23)
# TEST SUMMARY: Biacore, K-off
Reported values of fold difference in affinity vs original for individual entries
Only the number, expressed in fold, is required.

>>> readout_value("C5A (XPA23) VH I51Y (antibody, V domains shown) VH: EVQLLESGGGLVQPGGSLRLSCAASGFTFSKYFMFWVRQAPGKGLEWVSVYSPSGGMTRYADSVKGRFTISRDNSKNTLYLQMNSLRAEDTAVYYCARVGYGGNSDYWGQGTLVTVSS VL: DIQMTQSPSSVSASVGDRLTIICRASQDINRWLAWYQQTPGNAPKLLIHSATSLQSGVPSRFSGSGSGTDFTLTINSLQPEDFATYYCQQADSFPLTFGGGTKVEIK")
1.75

Asked: I have this binder here, C5A (XPA23) VH T58S (antibody, V domains shown) VH: EVQLLESGGGLVQPGGSLRLSCAASGFTFSKYFMFWVRQAPGKGLEWVSVISPSGGMSRYADSVKGRFTISRDNSKNTLYLQMNSLRAEDTAVYYCARVGYGGNSDYWGQGTLVTVSS VL: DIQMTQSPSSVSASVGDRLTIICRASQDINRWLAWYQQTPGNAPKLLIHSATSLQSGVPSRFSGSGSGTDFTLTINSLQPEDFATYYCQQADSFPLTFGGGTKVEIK , and I need its recorded fold difference in affinity vs original.
Given back: 0.82

Asked: I have this binder here, C5A (XPA23) VH N104T (antibody, V domains shown) VH: EVQLLESGGGLVQPGGSLRLSCAASGFTFSKYFMFWVRQAPGKGLEWVSVISPSGGMTRYADSVKGRFTISRDNSKNTLYLQMNSLRAEDTAVYYCARVGYGGTSDYWGQGTLVTVSS VL: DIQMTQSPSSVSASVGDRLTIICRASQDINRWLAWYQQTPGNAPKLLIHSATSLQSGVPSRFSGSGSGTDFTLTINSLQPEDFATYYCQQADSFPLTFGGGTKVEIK , and I need its recorded fold difference in affinity vs original.
Given back: 0.95
